- tgt: UniProt Q96RI1
- procedure.details: transient human FXR/Gal4-luciferase reporter assay
- measurement.context: Gal4-hFXR transfected HEK293 reporter cells; relative to 8 μM GW-4064
So I've got a bunch of compounds here, and I need their pEC50 values.
// pEC50 here means minus log10 of the molar concentration (mol/L)

Asked: So what does the record say about pEC50 for O=C(O)c1ccc(N2CCC3(C=C(c4c(-c5ccccc5OC(F)(F)F)noc4C4CC4)C3)CC2)nc1 ?
Given back: 6.11

Asked: So what does the record say about pEC50 for Cc1cc(C(=O)O)nc(N2CCC3(C=C(c4c(-c5c(Cl)cccc5Cl)noc4C4CC4)C3)CC2)n1 ?
Given back: 5.86

Asked: So what does the record say about pEC50 for Cn1cc(C(=O)O)c2ccc(N3CCC4(C=C(c5c(-c6ccccc6C(F)(F)F)noc5C5CC5)C4)CC3)cc21 ?
Given back: 6.85

Asked: So what does the record say about pEC50 for O=C(O)c1ccc(N2CCC3(C=C(c4c(C(F)F)cnn4-c4ccccc4OC(F)(F)F)C3)CC2)nc1 ?
Given back: 5.96

Asked: So what does the record say about pEC50 for COc1cc(C(=O)O)nc2ccc(N3CCC4(C=C(c5c(C6CCCCC6)noc5C5CC5)C4)CC3)cc12 ?
Given back: 5.97

Asked: So what does the record say about pEC50 for CS(=O)(=O)NC(=O)c1cc(F)c2nc(N3CCC4(C=C(c5c(-c6c(Cl)cncc6Cl)noc5C5CC5)C4)CC3)sc2c1 ?
Given back: 6.16

Asked: So what does the record say about pEC50 for O=C(O)c1ccc(N2CCC3(C=C(c4c(-c5ccccc5Cl)noc4C4CC4)C3)CC2)cc1 ?
Given back: 6.05

Asked: So what does the record say about pEC50 for O=C(O)c1nc(C(F)(F)F)n2cc(N3CCC4(C=C(c5c(-c6c(Cl)cccc6Cl)noc5C5CC5)C4)CC3)ccc12 ?
Given back: 6.99

Asked: So what does the record say about pEC50 for O=C(O)c1cc(F)c2nc(N3CCC4(C=C(c5c(-c6c(F)cccc6F)noc5C5CC5)C4)CC3)sc2c1 ?
Given back: 6.81

Asked: So what does the record say about pEC50 for Cn1c(N2CCC3(C=C(c4c(-c5c(Cl)cccc5Cl)noc4C4CC4)C3)CC2)nc2cc(C(=O)O)ccc21 ?
Given back: 5.99

====

- tgt: human FXR (Homo sapiens, UniProt Q96RI1)
- Sequence (Q96RI1 262-486 limits assumed): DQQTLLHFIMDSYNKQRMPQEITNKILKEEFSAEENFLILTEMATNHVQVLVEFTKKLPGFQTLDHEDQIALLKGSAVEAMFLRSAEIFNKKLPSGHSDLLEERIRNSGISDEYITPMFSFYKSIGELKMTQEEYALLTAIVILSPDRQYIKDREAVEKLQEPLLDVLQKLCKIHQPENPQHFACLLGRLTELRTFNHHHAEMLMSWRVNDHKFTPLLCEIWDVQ
- procedure.details: transient human FXR/Gal4-luciferase reporter assay
- measurement.context: Gal4-hFXR transfected HEK293 reporter cells; relative to 8 μM GW-4064
Consider the cut-off 200 nM. If the recorded EC50 is strictly smaller, the label is yes; if not, the label is no.

Asked: Determine whether this molecule shows EC50 lower than 200 nM (ties excluded): O=C(O)c1cc(F)c2nc(N3CC4(C=C(c5c(-c6ccccc6C(F)(F)F)noc5C5CC5)C4)C3)sc2c1 [Example 34]
Given back: no

Asked: Determine whether this molecule shows EC50 lower than 200 nM (ties excluded): O=C(O)c1cc2ccc(N3CCC4(C=C(c5c(-c6c(F)cccc6Cl)noc5C5CC5)C4)CC3)cc2cn1 [Example 158]
Given back: no

Asked: Determine whether this molecule shows EC50 lower than 200 nM (ties excluded): Cn1nc(N2CCC3(C=C(c4c(-c5c(Cl)cccc5Cl)noc4C4CC4)C3)CC2)c2ccc(C(=O)O)cc21 [Example 133]
Given back: no

Asked: Determine whether this molecule shows EC50 lower than 200 nM (ties excluded): COc1cc(C(=O)O)nc2ccc(N3CCC4(C=C(c5c(-c6ccccc6C(F)(F)F)noc5C5CC5)C4)CC3)cc12 [Example 105]
Given back: yes

Asked: Determine whether this molecule shows EC50 lower than 200 nM (ties excluded): O=C(O)c1ccc(N2CCC3(C=C(c4c(-c5c(Cl)cncc5Cl)noc4C4CC4)C3)CC2)nc1 [Example 66]
Given back: no

Asked: Determine whether this molecule shows EC50 lower than 200 nM (ties excluded): O=C(NS(=O)(=O)C1CC1)c1cc(F)c2nc(N3CCC4(C=C(c5c(-c6c(Cl)cncc6Cl)noc5C5CC5)C4)CC3)sc2c1 [Example 181]
Given back: yes

Asked: Determine whether this molecule shows EC50 lower than 200 nM (ties excluded): O=C(NS(=O)(=O)C1CC1)c1cc(F)c2nc(N3CCC4(C=C(c5c(-c6c(Cl)cccc6Cl)noc5C5CC5)C4)CC3)sc2c1 [Example 179]
Given back: yes

Asked: Determine whether this molecule shows EC50 lower than 200 nM (ties excluded): Cc1nc(N2CCC3(C=C(c4c(-c5c(Cl)cccc5Cl)noc4C4CC4)C3)CC2)ccc1C(=O)O [Example 124]
Given back: yes

Asked: Determine whether this molecule shows EC50 lower than 200 nM (ties excluded): O=C(O)c1ccc(N2CCC3(C=C(c4c(-c5ccccc5C(F)(F)F)noc4C4CC4)C3)CC2)nc1 [Example 30]
Given back: yes

Asked: Determine whether this molecule shows EC50 lower than 200 nM (ties excluded): O=C(O)c1cc(F)c2nc(N3[C@@H]4CC[C@H]3CC3(C=C(c5c(-c6c(Cl)cccc6Cl)noc5C5CC5)C3)C4)sc2c1 (mixture of isomers) [Example 11]
Given back: yes

Asked: Determine whether this molecule shows EC50 lower than 200 nM (ties excluded): O=C(O)c1ccc(N2CCC3(C=C(c4c(-c5c(Cl)cccc5Cl)noc4C4CC4)C3)CC2)cc1 [Example 10]
Given back: yes

Asked: Determine whether this molecule shows EC50 lower than 200 nM (ties excluded): COc1cc(C(=O)O)nc2ccc(N3CCC4(C=C(c5c(-c6cnccc6C(F)(F)F)noc5C5CC5)C4)CC3)cc12 [Example 146]
Given back: yes

Asked: Determine whether this molecule shows EC50 lower than 200 nM (ties excluded): O=C(O)c1ccc(N2C3CCC2CC2(CC(c4c(-c5c(Cl)cccc5Cl)noc4C4CC4)C2)C3)nc1 (centres unmarked) [Example 16]
Given back: no

Asked: Determine whether this molecule shows EC50 lower than 200 nM (ties excluded): Cn1cc(C(=O)O)c2cnc(N3CCC4(C=C(c5c(-c6c(Cl)cccc6Cl)noc5C5CC5)C4)CC3)nc21 [Example 6]
Given back: yes
